For each of the molecules below, state its RP-LC retention time.
assay_comment: gradient 5% acetonitrile 3 min, to 50% in 2 min, to 85% in 15 min, held 3 min, 100 µL/min
condition: column: Zorbax Extend-C18 2.1 x 50 mm; eluents: water / acetonitrile, 0.1% formic acid
The response must be a number in s with no trailing unit.

Inquiry: Fill in: RP-LC retention time of CCn1cc(CN2CCCC(Cn3cc(COC)nn3)C2)c2cc(OC)ccc21 (stereo not given) is ___
Reply text: 637

Inquiry: Lookup CCN1C=C(C(=O)OCc2ccccc2)C(C)=NS1(=O)=O
Reply text: 958

Inquiry: Lookup CN(C)c1ccc(C(CNC(=O)c2ccc(Br)o2)N2CCOCC2)cc1 (stereo not given)
Reply text: 626

Inquiry: Lookup CCCCN(C)C(=O)C1CCN(c2cncnc2N(C)C)CC1
Reply text: 611

Inquiry: Lookup Cc1ccc(S(=O)(=O)N2CCC3(CC2)CC(C)(O)CCO3)cc1 (stereo not given)
Reply text: 806

Inquiry: Lookup O=C(Nc1ccccc1[N+](=O)[O-])C(=O)N1CCN(Cc2ccc3c(c2)OCO3)CC1
Reply text: 592

Inquiry: Lookup Cc1cc(C)c2c(N3CCOCC3)nc(C(=O)NCC3CCCO3)nc2n1 (stereo not given)
Reply text: 585

Inquiry: Lookup COC(=O)c1ccccc1NC(=O)Cn1c(=O)c(CCC(=O)NC2CCCC2)nc2ccccc21
Reply text: 898

Inquiry: Lookup CCN1CCN(CCNC(=O)C2CCCN(c3nc4cccnc4s3)C2)CC1 (stereo not given)
Reply text: 562

Inquiry: Lookup CC1CCN(C(=O)C2c3ccccc3CCN2CC(=O)Nc2ccc(F)cc2Cl)CC1 (stereo not given)
Reply text: 936

Inquiry: Lookup O=C(NC1CC1)C1CCN(Cc2cc3ccccc3n2Cc2cccc(Cl)c2)CC1
Reply text: 730

Inquiry: Lookup COC(=O)c1ccccc1NC1=NS(=O)(=O)c2ccccc21
Reply text: 934

Inquiry: Lookup O=C(Cc1nnc2cc(-c3nc(C4CC4)no3)ccn12)NC1CCCCCC1
Reply text: 741

Inquiry: Lookup CCNC(=O)c1ccc2c(c1)n(Cc1ccccc1)c(=O)c1ccnn12
Reply text: 774

Inquiry: Lookup Cn1cccc1-c1cc2n(n1)CCCN2C(=O)CCC(=O)NCc1ccc(F)cc1
Reply text: 717

Inquiry: Lookup Cc1ccc(S(=O)(=O)N2CCOCC2)cc1-c1nnc(-c2ccccc2)o1
Reply text: 919

Inquiry: Lookup CC(C)c1ccc2c(c1)-c1ccccc1S(=O)(=O)N2CC(=O)NCCN1CCOCC1
Reply text: 692

Inquiry: Lookup COCCN1CC(CO)C2(CCN(Cc3ccc(OC)cc3OC)CC2)C1 (stereo not given)
Reply text: 540

Inquiry: Lookup CCOC(=O)c1cnc(N2CCN(Cc3ccccc3)CC2)c2ccccc12
Reply text: 755

Inquiry: Lookup CCCN1C(=O)c2cc(C(=O)NCc3ccc(N(C)C)cc3)nn2CC1(C)C(=O)NC1CCCC1 (stereo not given)
Reply text: 655

====

For each of the molecules below, state its RP-LC retention time.
assay_comment: gradient 5% acetonitrile 3 min, to 50% in 2 min, to 85% in 15 min, held 3 min, 100 µL/min
condition: column: Zorbax Extend-C18 2.1 x 50 mm; eluents: water / acetonitrile, 0.1% formic acid
The response must be a number in s with no trailing unit.

Inquiry: Fill in: RP-LC retention time of COc1ccc(-n2ncc3c(=O)n(Cc4nc(-c5ccc(Br)cc5)no4)cnc32)cc1 is ___
Reply text: 1090

Inquiry: Lookup CCCCn1cc(S(=O)(=O)N2CCN(c3cccc(Cl)c3)CC2)c2cccnc21
Reply text: 1250

Inquiry: Lookup NC(=O)Cn1c(Cc2ccccc2)nc2ccccc21
Reply text: 522

Inquiry: Lookup CC1CCN(S(=O)(=O)c2cc(C(=O)NCc3ccc(Br)cc3)n(C)c2)CC1
Reply text: 1080

Inquiry: Lookup CCCn1c(=O)c(C)nc2cc(-c3noc(Cc4ccc(OC)cc4)n3)ccc21
Reply text: 1040

Inquiry: Lookup CN(CC1CCOCC1)C(=O)Nc1ccccc1Br
Reply text: 768

Inquiry: Lookup Cc1cc(C)c(NC(=O)C23CCC(C)(C(=O)O2)C3(C)C)c([N+](=O)[O-])c1 (stereo not given)
Reply text: 884

Inquiry: Lookup Cc1ccc2[nH]cc(CCNC(=O)CC3CCN(C(=O)C4CCCCC4)CC3)c2c1
Reply text: 850

Inquiry: Lookup c1ccc(CC2CCN(Cc3nc(-c4ccc(N5CCCCC5)nc4)no3)CC2)cc1
Reply text: 802

Inquiry: Lookup Cc1noc(-c2cccnc2SCC(=O)Nc2cccc(Br)c2)n1
Reply text: 895

Inquiry: Lookup O=C(c1cn(-c2ccc(-c3nc(C4CC4)no3)cn2)cn1)N1CCc2ccccc2C1
Reply text: 968

Inquiry: Lookup Cc1cccc(Sc2nccnc2N2CCCC(C(=O)N3CCCC3)C2)c1 (stereo not given)
Reply text: 1010

Inquiry: Lookup COc1ccc(OC)c(NS(=O)(=O)c2cccs2)c1
Reply text: 777

Inquiry: Lookup CNC(=O)c1cnn2c3c(cnc12)CCCCCC3
Reply text: 831

Inquiry: Lookup COCCCN1C(=O)CSc2c(c3ccccc3n2C)C1C(=O)NCc1ccc(F)cc1 (stereo not given)
Reply text: 893

Inquiry: Lookup O=C(Nc1nc(-c2ccccc2)cs1)c1cncc(Br)c1
Reply text: 998

Inquiry: Lookup O=C(NC1CCCCC1)c1ccc2c(c1)CCN2C(=O)C1CC1
Reply text: 824

Inquiry: Lookup CCOc1ccc(-c2ccc3nnc(SCC(=O)Nc4nc(C)cs4)n3n2)cc1
Reply text: 752

Inquiry: Lookup COc1ccc(NS(=O)(=O)c2cn(C(C)C)c3ncccc23)cc1Cl
Reply text: 908

Inquiry: Lookup CNC(=O)c1cc(C(=O)c2ccc3nc(Nc4cccc(C(F)(F)F)c4)[nH]c3c2)ccn1
Reply text: 747
